Molecular target: T1, human high affinity trimeric IL-2 receptor (CD25/CD122/CD132) (human, UniProt P01589 22-272; P14784 27-551; P31785 23-369)
T1 sequence 1: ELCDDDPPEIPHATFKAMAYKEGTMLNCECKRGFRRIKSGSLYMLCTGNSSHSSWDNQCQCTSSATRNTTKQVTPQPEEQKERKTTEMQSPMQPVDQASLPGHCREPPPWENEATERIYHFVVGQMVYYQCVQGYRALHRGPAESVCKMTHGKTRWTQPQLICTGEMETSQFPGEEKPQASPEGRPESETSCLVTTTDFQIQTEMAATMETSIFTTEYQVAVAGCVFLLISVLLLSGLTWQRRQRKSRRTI
T1 sequence 2: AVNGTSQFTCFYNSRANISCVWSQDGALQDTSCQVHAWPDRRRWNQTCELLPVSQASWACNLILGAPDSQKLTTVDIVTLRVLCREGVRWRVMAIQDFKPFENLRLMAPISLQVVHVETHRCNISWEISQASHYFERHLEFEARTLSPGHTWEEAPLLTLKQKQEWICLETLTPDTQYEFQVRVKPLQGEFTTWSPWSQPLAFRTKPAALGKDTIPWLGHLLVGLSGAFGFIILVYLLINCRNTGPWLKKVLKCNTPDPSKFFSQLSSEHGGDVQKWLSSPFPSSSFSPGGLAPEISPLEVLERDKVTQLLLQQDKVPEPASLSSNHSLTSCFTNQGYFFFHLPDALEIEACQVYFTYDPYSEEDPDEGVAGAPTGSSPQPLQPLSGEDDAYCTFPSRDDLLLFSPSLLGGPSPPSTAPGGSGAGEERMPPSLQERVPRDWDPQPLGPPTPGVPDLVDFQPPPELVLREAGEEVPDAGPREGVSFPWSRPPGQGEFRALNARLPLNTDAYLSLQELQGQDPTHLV
T1 sequence 3: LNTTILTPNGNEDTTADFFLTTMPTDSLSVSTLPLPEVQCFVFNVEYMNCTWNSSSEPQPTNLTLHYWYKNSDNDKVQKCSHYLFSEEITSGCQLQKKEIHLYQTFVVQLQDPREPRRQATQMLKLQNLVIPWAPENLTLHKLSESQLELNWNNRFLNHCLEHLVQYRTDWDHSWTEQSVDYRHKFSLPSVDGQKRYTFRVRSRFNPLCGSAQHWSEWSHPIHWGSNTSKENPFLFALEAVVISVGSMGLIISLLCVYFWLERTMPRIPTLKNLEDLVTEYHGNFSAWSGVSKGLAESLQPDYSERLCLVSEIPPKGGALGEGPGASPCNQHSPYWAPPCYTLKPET
Assay: cell-based or functional assay
quantity_name: pSTAT5 ratio YT CD25/YT, dilution factor 16, upper table
When you answer, write just the number.

// known answers, use as guide
GEH (ligand) cytokine: APTSSSTKKTQLQLEHLGLDLEMILNGINNYKNPKLTRMLTFKFYMPKKATELKHLQCLEEELKPLEEVLNLAQSKNFHLRPRDLISNINVIVLELKGSETTFMCEYADETATIVEFLNRWITFCHSIISTLT: 13.2
AEH (ligand) cytokine: APTSSSTKKTQLQLEHLALDLEMILNGINNYKNPKLTRMLTFKFYMPKKATELKHLQCLEEELKPLEEVLNLAQSKNFHLRPRDLISNINVIVLELKGSETTFMCEYADETATIVEFLNRWITFCHSIISTLT: 9.7

Quick one: pSTAT5 ratio YT CD25/YT, dilution factor 16, upper table for VEH (ligand) cytokine: APTSSSTKKTQLQLEHLVLDLEMILNGINNYKNPKLTRMLTFKFYMPKKATELKHLQCLEEELKPLEEVLNLAQSKNFHLRPRDLISNINVIVLELKGSETTFMCEYADETATIVEFLNRWITFCHSIISTLT ?
3.6

// pSTAT5 ratio YT CD25/YT, dilution factor 16, upper table lookup, key: MEH (ligand) cytokine: APTSSSTKKTQLQLEHLMLDLEMILNGINNYKNPKLTRMLTFKFYMPKKATELKHLQCLEEELKPLEEVLNLAQSKNFHLRPRDLISNINVIVLELKGSETTFMCEYADETATIVEFLNRWITFCHSIISTLT
1.4
